test system: NCI-H460; assay: NCI tumour cell line growth inhibition, 48 h
Calls of active or inactive are those of the source. Rule as the data show it: active = GI50 up to about 1.1 µM and inactive = higher.
I'd be grateful if you could share measured GI50 for these entries.

{"columns": ["molecule", "GI50"],
 "data": [
  ["Clc1ccc(C2=NOC3C4CCC(C4)C23)cc1 (stereo not given)", "> 100 µM (inactive)"],
  ["Cc1c(Cl)cccc1NC(=O)C(=O)C1C(=O)NC(=O)NC1=O", "> 100 µM (inactive)"],
  ["COC(=O)[C@H](Cc1c[nH]c2ccccc12)NP(=O)(OCCC#N)OCC1OC(n2cc(C)c(=O)[nH]c2=O)CC1N=[N+]=[N-] (stereo not given in full)", "> 100 µM (inactive)"],
  ["CC1=C(/C=C/C(C)=C/C=C/C(C)=C/C(=O)Nc2ccc(O)cc2)C(C)(C)CCC1 [FENRETINIDE]", "4.63 µM (inactive)"],
  ["O=c1c(=O)c2c(Br)sc(Br)c2c1=O", "> 100 µM (inactive)"]
]}

Give me GI50 for each of these molecules, listed below.
1. NC(=O)n1ncc(Cl)c(Cl)c1=O
2. CN(N=O)c1ccc(/C=C/c2ccnc3ccccc23)cc1
3. O=C(N/N=C\c1cccc2ccccc12)Nc1ccc([N+](=O)[O-])cc1
4. CC(Cc1ccc(O)c(O)c1)C(C)Cc1ccc(O)c(O)c1 (stereo not given) [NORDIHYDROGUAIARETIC ACID]
5. CCOC(=O)Cn1c(=O)n(C)c(=O)c2c1ncn2Cc1ccccc1

result:
> 100 µM (inactive)
34.2 µM (inactive)
10.9 µM (inactive)
16.7 µM (inactive)
> 100 µM (inactive)
